# ASSAY EXPLANATION: NCI Yeast Anticancer Drug Screen. Data for the rad50 strain (AID 155);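 also: 0% = growth of vehicle-only cultures of the same strain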
# CONDITION CONTEXT: S. cerevisiae rad50 strain growth inhibition; at 50.0 µM; active compounds read high
This is part of a sample that, as a whole, favours compounds with a hit. Of some 79,000 tested, about 15% had one in any assay.
Kindly state growth inhibition for each of the entries shown.
One number for each entry, in %.

Example results:
# COMPOUND, growth inhibition / %
rows = [
    ("CCc1c(C(=O)OC)c(C(=O)OC)c(-c2ccccc2)n1CCn1c(CC)c(C(=O)OC)c(C(=O)OC)c1-c1ccccc1", 50.1),
    ("Oc1ccc(-c2nnc(-c3ccc(Cl)cc3Cl)o2)cc1", 54.6),
    ("CCC(C)Sc1nc2c([nH]1)c(=S)n(C)c(=O)n2C (stereo not given)", 87.7),
    ("S=C(NC(=S)Nc1ccccc1)Nc1ccccc1", 93.8),
]

Here is the next item to consider.
Kindly note the recorded growth inhibition for O=NNc1ccc2cc3ccc(NN=O)cc3nc2c1 , which is 43.2
